test system: MT4; test: Cytotoxicity against mock infected human MT4 cells by MTT assay; assay type: toxicity, cell-based
Task for the reader: assign each of the following compounds its reported CC50.

Query: Could you share which CC50 value was measured for CN(C(=O)[C@H](Cc1ccccc1)NC(=O)c1cccc(C(=O)Nc2cccc(NC(=O)OC(C)(C)C)c2)c1)c1ccc2scnc2c1 ?
Result: > 193 µM

Query: Would you mind doing CN(C(=O)[C@H](Cc1ccccc1)NC(=O)c1cccc(C(=O)Nc2ccccc2F)c1)c1ccc2scnc2c1 as well?
Result: 66.4 µM

Query: Would you mind doing CN(C(=O)[C@H](Cc1ccccc1)NC(=O)c1cccc(C(=O)Nc2ccc(F)cc2)c1)c1ccc2scnc2c1 as well?
Result: 54 µM

Query: Would you mind doing CN(C(=O)[C@H](Cc1ccccc1)NC(=O)c1cccc(C(=O)N2CCN(C(=O)OC(C)(C)C)CC2)c1)c1ccc2scnc2c1 as well?
Result: 93.9 µM

Query: Would you mind doing CN(C(=O)[C@H](Cc1ccccc1)NC(=O)c1cccc(C(=O)Nc2ccc(C(F)(F)F)cc2)c1)c1ccc2scnc2c1 as well?
Result: 88.2 µM

Query: Would you mind doing CN(C(=O)[C@H](Cc1ccccc1)NC(=O)c1cccc(C(=O)Nc2ccccc2NC(=O)OC(C)(C)C)c1)c1ccc2scnc2c1 as well?
Result: > 193 µM

Query: Would you mind doing COCCNC(=O)c1cccc(C(=O)N[C@@H](Cc2ccccc2)C(=O)N(C)c2ccc3scnc3c2)c1 as well?
Result: 203 µM

Query: Would you mind doing CN(C(=O)[C@H](Cc1ccccc1)NC(=O)c1cccc(C(=O)Nc2ccc(Cl)cc2)c1)c1ccc2scnc2c1 as well?
Result: > 220 µM

Query: Would you mind doing CN(C(=O)[C@H](Cc1ccccc1)NC(=O)c1cccc(C(=O)Nc2ccc(NC(=O)OC(C)(C)C)cc2)c1)c1ccc2scnc2c1 as well?
Result: 2.23 µM

Query: Would you mind doing CN(C(=O)[C@H](Cc1ccccc1)NC(=O)c1cccc(C(=O)Nc2ccncc2)c1)c1ccc2scnc2c1 as well?
Result: 37.6 µM

Query: Would you mind doing CC(=O)c1ccc(NC(=O)c2cccc(C(=O)N[C@@H](Cc3ccccc3)C(=O)N(C)c3ccc4scnc4c3)c2)cc1 as well?
Result: 165 µM

Query: Would you mind doing CN(C(=O)[C@H](Cc1ccccc1)NC(=O)c1cccc(C(=O)Nc2ccccc2)c1)c1ccc2scnc2c1 as well?
Result: > 234 µM

Query: Would you mind doing CN(C(=O)[C@H](Cc1ccccc1)NC(=O)c1cccc(C(=O)Nc2ccc(C#N)cc2)c1)c1ccc2scnc2c1 as well?
Result: > 224 µM

Query: Would you mind doing COc1ccc(NC(=O)c2cccc(C(=O)N[C@@H](Cc3ccccc3)C(=O)N(C)c3ccc4scnc4c3)c2)cc1 as well?
Result: > 222 µM

Query: Would you mind doing CN(C(=O)[C@H](Cc1ccccc1)NC(=O)c1cccc(C(=O)Nc2cccc(N)c2)c1)c1ccc2scnc2c1 as well?
Result: 134 µM

Query: Would you mind doing CN(C(=O)[C@H](Cc1ccccc1)NC(=O)c1cccc(C(=O)Nc2ccccc2N)c1)c1ccc2scnc2c1 as well?
Result: 25.4 µM
